The reported numbers originate from ChEMBL document CHEMBL5537169.

Test: Apparent volume of distribution at steady state in Beagle dog at 2 mg/kg,iv measured at 0.083 to 24 hrs post administration by LC-MS/MS analysis
Format: ADME, organism-based, Canis lupus familiaris
Details: Beagle, in vivo, time 0.083-24 hrs, read-out: Vdss(app)
measure: Vd

## Input Any idea what its Vd is? The molecule is COCCCOc1cc2c(cc1Cl)-c1cc(=O)c(C(=O)O)cn1[C@H](C(C)C)CO2
## Output 1 L/kg

## Input Now consider COCCCOc1cc2c(nc1OC)-c1cc(=O)c(C(=O)O)cn1[C@H](C(C)C)C2 and answer again.
## Output 0.8 L/kg

----------
System: Hepatitis B virus
Experiment: Antiviral activity against HBV infected in human HepG2.2.15 cells assessed as inhibition of HBsAg level incubated for 6 days by microplate-based chemiluminescence immunoassay
Assay type: functional, organism-based
Details: HepG2 2.2.15, 144 h
pEC50: −log10 of the molar value.
// No strictly below 6 in pEC50; Yes otherwise

## Input Identify whether the reported pEC50 of the following compound is 6 or greater: COc1nc2c(s1)CC(C(C)C)n1cc(C(=O)O)c(=O)cc1-2 (stereo not given)
## Output No

## Input Now consider CCc1cc2c(cc1OCCCOC)OC[C@@H](C(C)C)n1cc(C(=O)O)c(=O)cc1-2 and answer again.
## Output Yes

## Input Now consider COCCCOc1cc2c([nH]c1=O)-c1cc(=O)c(C(=O)O)cn1[C@H](C(C)C)C2 and answer again.
## Output Yes

## Input Now consider COc1cc2c(cc1Cl)-c1cc(=O)c(C(=O)O)cn1[C@@H](C(C)C)CO2 and answer again.
## Output No

## Input Now consider COCCCOc1cc2c(cc1OC)-c1cc(=O)c(C(=O)O)cn1[C@H](C(C)C)C2 and answer again.
## Output Yes

----------
Answer each item with its documented Cmax.
Test: Cmax in Sprague-Dawley rat at 2 mg/kg,iv measured at 0.083 to 24 hrs post administration by LC-MS/MS analysis
Type: ADME, organism-based
Settings: in vivo, time 0.083-24 hrs
Give your result in ng/mL as a bare value.

## Input Any idea what its Cmax is? The molecule is COCCCOc1cc2c(nc1OC)-c1cc(=O)c(C(=O)O)cn1[C@H](C(C)C)C2
## Output 3240

## Input Now consider COCCCOc1cc2c(nc1OC)-c1cc(=O)c(C(=O)O)cn1[C@](C)(C(C)(C)C)C2 and answer again.
## Output 1680

## Input Now consider COCCCOc1cc2c(cc1OC)-c1cc(=O)c(C(=O)O)cn1[C@H](C(C)C)C2 and answer again.
## Output 4950

## Input Now consider COCCCOc1cc2c(nc1OC)-c1cc(=O)c(C(=O)O)cn1[C@](C)(C(C)C)C2 and answer again.
## Output 1590

----------
Test: Protein binding in human plasma assessed as fraction unbound at 2 uM incubated for 6 hrs by equilibrium dialysis based LC-MS/MS analysis
Assay type: ADME, cell-free
Answer each item with its documented fraction unbound at 6 h, 2 µM.
Output spec: single numeric token, no unit.

## Input Any idea what its fraction unbound at 6 h, 2 µM is? The compound is COCCCOc1cc2c(cc1Cl)-c1cc(=O)c(C(=O)O)cn1[C@H](C(C)C)CO2
## Output 0.14

## Input Now consider COCCCOc1cc2c(cc1OC)-c1cc(=O)c(C(=O)O)cn1[C@H](C(C)C)C2 and answer again.
## Output 0.44

## Input Now consider COCCCOc1cc2c(nc1OC)-c1cc(=O)c(C(=O)O)cn1[C@H](C(C)C)C2 and answer again.
## Output 0.5

----------
Assay: Apparent volume of distribution at steady state in Sprague-Dawley rat at 2 mg/kg,iv measured at 0.083 to 24 hrs post administration by LC-MS/MS analysis
Type: ADME, organism-based
Details: in vivo, time 0.083-24 hrs, read-out: Vdss(app)
measure: Vd (L/kg)
Give your result in L/kg as a bare value.

## Input Any idea what its Vd is? The molecule is COCCCOc1cc2c(cc1OC)-c1cc(=O)c(C(=O)O)cn1[C@H](C(C)C)C2
## Output 0.7

## Input Now consider COCCCOc1cc2c(nc1OC)-c1cc(=O)c(C(=O)O)cn1[C@](C)(C(C)(C)C)C2 and answer again.
## Output 3.1

## Input Now consider COCCCOc1cc2c(nc1OC)-c1cc(=O)c(C(=O)O)cn1[C@H](C(C)C)C2 and answer again.
## Output 0.7

## Input Now consider COCCCOc1cc2c(nc1OC)-c1cc(=O)c(C(=O)O)cn1[C@](C)(C(C)C)C2 and answer again.
## Output 2.7

----------
Answer each item with its documented half-life.
Experiment: Half life in Beagle dog at 10 mg/kg,po measured at 0.083 to 24 hrs post administration by LC-MS/MS analysis
Type: ADME, organism-based, Canis lupus familiaris
Details: in vivo, time 0.083-24 hrs
Give your result in h as a bare value.

## Input Any idea what its half-life is? The molecule is COCCCOc1cc2c(nc1OC)-c1cc(=O)c(C(=O)O)cn1[C@H](C(C)C)C2
## Output 2.8

## Input Now consider COCCCOc1cc2c(cc1Cl)-c1cc(=O)c(C(=O)O)cn1[C@H](C(C)C)CO2 and answer again.
## Output 1.7

## Input Now consider COCCCOc1cc2c(cc1OC)-c1cc(=O)c(C(=O)O)cn1[C@H](C(C)C)C2 and answer again.
## Output 1.6

----------
Assay: Tmax in Sprague-Dawley rat at 10 mg/kg,po measured at 0.083 to 24 hrs post administration by LC-MS/MS analysis
Assay type: ADME, organism-based
Settings: Sprague-Dawley, in vivo, time 0.083-24 hrs, read-out: Tmax
measure: Tmax (h)
Give your result in h as a bare value.

## Input Any idea what its Tmax is? The compound is COCCCOc1cc2c(cc1Cl)-c1cc(=O)c(C(=O)O)cn1[C@H](C(C)C)CO2
## Output 2.1

----------
Assay: Clearance in human liver microsomes at 0.3 uM pre-incubated for 10 mins followed by NADPH addition incubated for 60 mins by LC-MS/MS analysis
Type: ADME, Microsome
Details: time 70 min, read-out: CLH
measure: microsomal CLint at 0.3 µM (µL/min/mg)
Give your result in µL/min/mg as a bare value.

## Input Any idea what its microsomal CLint at 0.3 µM is? The compound is COCCCOc1cc2c(cc1C)-c1cc(=O)c(C(=O)O)cn1[C@H](C(C)C)CO2
## Output 8

## Input Now consider COCCCOc1cc2c(cc1Cl)-c1cc(=O)c(C(=O)O)cn1[C@H](C(C)C)CO2 and answer again.
## Output 5

## Input Now consider CC(C)[C@@H]1COc2cc(OCCCO)c(Cl)cc2-c2cc(=O)c(C(=O)O)cn21 and answer again.
## Output 4

## Input Now consider COCCCOc1cc2c(nc1OC)-c1cc(=O)c(C(=O)O)cn1[C@H](C(C)C)C2 and answer again.
## Output 3

## Input Now consider COCCCOc1cc2c(cc1OC)-c1cc(=O)c(C(=O)O)cn1[C@H](C(C)C)C2 and answer again.
## Output 2

## Input Now consider CC(C)[C@@H]1COc2cc(OCC(F)(F)F)c(Cl)cc2-c2cc(=O)c(C(=O)O)cn21 and answer again.
## Output 4

----------
Assay: AUCinfinity in Beagle dog at 10 mg/kg,po measured at 0.083 to 24 hrs post administration by LC-MS/MS analysis
Format: ADME, organism-based, Canis lupus familiaris
Settings: in vivo, time 0.083-24 hrs
Answer each item with its documented AUC(0-inf).
Answer format reminder: number followed by unit.

## Input Any idea what its AUC(0-inf) is? The compound is COCCCOc1cc2c(cc1Cl)-c1cc(=O)c(C(=O)O)cn1[C@H](C(C)C)CO2
## Output 10700 ng·h/mL

## Input Now consider COCCCOc1cc2c(cc1OC)-c1cc(=O)c(C(=O)O)cn1[C@H](C(C)C)C2 and answer again.
## Output 13000 ng·h/mL

## Input Now consider COCCCOc1cc2c(nc1OC)-c1cc(=O)c(C(=O)O)cn1[C@H](C(C)C)C2 and answer again.
## Output 31500 ng·h/mL

----------
Test: Clearance in CD-1 mouse liver microsomes at 0.3 uM pre-incubated for 10 mins followed by NADPH addition incubated for 60 mins by LC-MS/MS analysis
Type: ADME, Microsome
Settings: time 70 min, read-out: CLH
Answer each item with its documented microsomal CLint at 0.3 µM.
Give your result in µL/min/mg as a bare value.

## Input Any idea what its microsomal CLint at 0.3 µM is? The compound is COCCCOc1cc2c(cc1C1CC1)-c1cc(=O)c(C(=O)O)cn1[C@H](C(C)C)CO2
## Output 1

## Input Now consider COCCCOc1cc2c(cc1C)-c1cc(=O)c(C(=O)O)cn1[C@H](C(C)C)CO2 and answer again.
## Output 4

## Input Now consider COCCCOc1cc2c(cc1Cl)-c1cc(=O)c(C(=O)O)cn1[C@H](C(C)C)CO2 and answer again.
## Output 5

## Input Now consider CC(C)[C@@H]1COc2cc(OCC(C)(C)CO)c(Cl)cc2-c2cc(=O)c(C(=O)O)cn21 and answer again.
## Output 17

## Input Now consider CCc1cc2c(cc1OCCCOC)OC[C@@H](C(C)C)n1cc(C(=O)O)c(=O)cc1-2 and answer again.
## Output 10

## Input Now consider COCCCCOc1cc2c(cc1Cl)-c1cc(=O)c(C(=O)O)cn1[C@H](C(C)C)CO2 and answer again.
## Output 1

## Input Now consider CC(C)[C@@H]1COc2cc(OCCCN3CCOCC3)c(Cl)cc2-c2cc(=O)c(C(=O)O)cn21 and answer again.
## Output 1

## Input Now consider CC(C)[C@@H]1COc2cc(OCC3CC3)c(Cl)cc2-c2cc(=O)c(C(=O)O)cn21 and answer again.
## Output 1

## Input Now consider COCCCOc1cc2c(cc1OC)-c1cc(=O)c(C(=O)O)cn1[C@H](C(C)C)C2 and answer again.
## Output 5

## Input Now consider CC(C)[C@@H]1COc2cc(OCCCCO)c(Cl)cc2-c2cc(=O)c(C(=O)O)cn21 and answer again.
## Output 1

## Input Now consider CC(C)[C@@H]1COc2cc(OCCCO)c(Cl)cc2-c2cc(=O)c(C(=O)O)cn21 and answer again.
## Output 6

## Input Now consider COc1cc2c(cc1Cl)-c1cc(=O)c(C(=O)O)cn1[C@H](C(C)C)CO2 and answer again.
## Output 1

## Input Now consider COCCCOc1cc2c(nc1OC)-c1cc(=O)c(C(=O)O)cn1[C@H](C(C)C)C2 and answer again.
## Output 2
